- Test system: HepG2
- Experiment Notes: cytotoxicity call (relative viability < 0.9)
- Study Conditions: 10 µM
About 3,300 (8.5%) of roughly 39,000 compounds were called active. Shown is part of a subset that was picked to be rich in actives.
Possible outcomes: True (active), False (inactive)

compound=C=C/C=C/[C@@H]1C(=C)CN([C@@H](Cc2ccccc2)C(=O)OC)[C@H]1[C@@H](O)CCn1cc(-c2ccc(C(=O)NO)s2)nn1 label=False
compound=COc1ccc(S(=O)(=O)N(C)C[C@@H]2OCCCC[C@@H](C)Oc3ccc(NC(=O)NC4CCCCC4)cc3C(=O)N([C@H](C)CO)C[C@H]2C)cc1 label=True
compound=COc1ccc(S(=O)(=O)N(C)C[C@H]2OCCCC[C@H](C)Oc3ccc(NC(=O)NC4CCCCC4)cc3C(=O)N([C@@H](C)CO)C[C@H]2C)cc1 label=False
compound=COc1ccc(S(=O)(=O)N(C)C[C@H]2OCCCC[C@H](C)Oc3ccc(NC(=O)NC4CCCCC4)cc3C(=O)N([C@H](C)CO)C[C@@H]2C)cc1 label=False
compound=COc1ccc(S(=O)(=O)N(C)C[C@@H]2OCCCC[C@H](C)Oc3ccc(NC(=O)NC4CCCCC4)cc3C(=O)N([C@@H](C)CO)C[C@@H]2C)cc1 label=False
compound=C[C@H](CO)N1C[C@H](C)[C@@H](CN(C)C(=O)Nc2ccc3c(c2)OCO3)Oc2ccc(NC(=O)CCCN(C)C)cc2C1=O label=False
compound=O=C(C[C@H]1C=C[C@@H](NS(=O)(=O)c2ccccc2)[C@H](CO)O1)NCc1ccncn1 label=False
compound=Nc1nnc(SC[C@@H](O)CO)s1 label=False
compound=COc1ccc(NC(=O)Nc2ccc3c(c2)C(=O)N([C@@H](C)CO)C[C@H](C)[C@@H](CN(C)S(=O)(=O)c2ccc(Cl)cc2)OCCCC[C@@H](C)O3)cc1 label=False
compound=COc1ccc(S(=O)(=O)N(C)C[C@@H]2OCCCC[C@H](C)Oc3ccc(NC(=O)NC4CCCCC4)cc3C(=O)N([C@@H](C)CO)C[C@H]2C)cc1 label=False
compound="CCC1(O)CC2CN(CCc3c([nH]c4ccccc34)C(C(=O)OC)(c3cc4c(cc3OC)N(C=O)C3C(O)(C(=O)OC)C(OC(C)=O)C5(CC)C=CCN6CCC43C65)C2)C1.O=S(=O)(O)O (centres undefined)" label=True
compound=COc1ccc(S(=O)(=O)N(C)C[C@H]2OCCCC[C@@H](C)Oc3ccc(NC(=O)NC4CCCCC4)cc3C(=O)N([C@@H](C)CO)C[C@H]2C)cc1 label=True
compound=O=C(O)c1ccc(CNc2cn[nH]c(=O)n2)cc1 label=False
compound=COc1ccc(S(=O)(=O)N(C)C[C@H]2OCCCC[C@H](C)Oc3ccc(NC(=O)NC4CCCCC4)cc3C(=O)N([C@H](C)CO)C[C@H]2C)cc1 label=False

* * *

- Tested on: HepG2
- Experiment Notes: cytotoxicity call (relative viability < 0.9)
- Study Conditions: 10 µM
About 3,300 (8.5%) of roughly 39,000 compounds were called active. What follows is part of a selection rich in actives, with near analogues and random picks from the rest.
Possible outcomes: true (1) for active, false (0) for inactive

molecule=COc1ccccc1C#Cc1cnc2c(c1)C(=O)N([C@@H](C)CO)C[C@H](C)[C@@H](CN(C)C(=O)CN(C)C)O2 label="false (0)"
molecule=O=C(CN1CCOC1=O)N1CCC2(CCC(=O)N(CCCn3ccnc3)C2)CC1 label="false (0)"
molecule=C[C@H]1CCCCO[C@H](CN(C)C(=O)Nc2ccc(C(F)(F)F)cc2)[C@@H](C)CN([C@@H](C)CO)C(=O)c2cc(NC(=O)CCC(F)(F)F)ccc2O1 label="true (1)"
molecule=CN1CCN(C(=O)C[C@@H]2C=C[C@@H](NC(=O)Cc3ccccn3)[C@H](CO)O2)CC1 label="false (0)"
molecule=CCS(=O)(=O)N1C[C@]2(C1)CN([C@@H](CO)c1[nH]c3cc(ccc3c12)OC)S(=O)(=O)c1cccc(c1)OC label="false (0)"
molecule=CN(C)S(=O)(=O)N1C[C@H]2C[C@H](C(=O)Nc3cccnc3)[C@@H](C1)O2 label="false (0)"
molecule=C[C@H]1CN([C@@H](C)CO)C(=O)c2cc(C#Cc3ccccc3F)cnc2O[C@H]1CN(C)C(=O)C1CCOCC1 label="false (0)"
molecule="CN1CCCC1c1cccnc1.O=C(O)C(O)C(O)C(=O)O.O=C(O)C(O)C(O)C(=O)O (stereo not given)" label="false (0)"
molecule=COc1ccc(NC(=O)Nc2ccc3c(c2)CC(=O)N([C@@H](C)CO)C[C@@H](C)[C@H](CN(C)S(=O)(=O)c2cn(C)cn2)O3)cc1 label="false (0)"
molecule=C[C@H](CO)N1C[C@H](C)[C@@H](CN(C)Cc2ccc(C(F)(F)F)cc2)Oc2ccc(NC(=O)Nc3ccc(C(F)(F)F)cc3)cc2C1=O label="false (0)"
molecule=Cc1noc(C)c1NC(=O)N(C)C[C@@H]1OCCCC[C@H](C)Oc2ccc(NC(=O)CCC(F)(F)F)cc2C(=O)N([C@@H](C)CO)C[C@H]1C label="false (0)"
molecule=C[C@H](CO)N1C[C@H](C)[C@H](CN(C)S(=O)(=O)c2cn(C)cn2)Oc2ccc(NS(=O)(=O)c3ccccc3)cc2C1=O label="false (0)"
molecule=COCC#Cc1ccc2c(c1)O[C@@H](CN(C)S(=O)(=O)c1ccc(F)cc1)[C@H](C)CN([C@@H](C)CO)S2(=O)=O label="false (0)"
molecule=C[C@@H]1CCCCO[C@@H](CN(C)S(C)(=O)=O)[C@H](C)CN([C@@H](C)CO)C(=O)c2cc(NS(=O)(=O)c3ccccc3)ccc2O1 label="false (0)"
molecule=C[C@H](CO)N1C[C@H](C)[C@@H](CN(C)CC2CCCCC2)Oc2ccc(NC(=O)CCN3CCOCC3)cc2CC1=O label="false (0)"
